Below are IC50 values for UniProtKB P30530 collected from several publications.

Example results:
- Compound: "COc1cc2nccc(Oc3ccc(NC(=O)c4cc5c(n(-c6ccccc6)c4=O)CCCNC5=O)nc3)c2cc1OC"
  IC50: "1.5 nM"
- Compound: "CC(C)Nc1ncc2c(OC3CCNCC3)ncc([C@H]3CC[C@H](O)CC3)c2n1"
  IC50: "≤ 100 nM"
- Compound: "Nc1ncc(-c2cnn(C3CCNCC3)c2)cc1-c1ncc(-c2ccc(Cl)cc2)o1"
  IC50: "< 500 nM"

Item CNS(=O)(=O)c1cncc(-c2cc([C@H]3CC[C@H](O)CC3)n3nc(N[C@@H](C)COC(F)F)ncc23)c1 with UniProtKB P30530 - IC50?
≤ 100 nM

I'm curious: which IC50 was measured for CNC(=O)c1cncc(-c2cc([C@H]3CC[C@H](O)CC3)n3nc(N[C@@H](C)CC(F)(F)F)ncc23)c1 tested on UniProtKB P30530?
≤ 100 nM

Write down the reported IC50 of COC[C@H](C)Nc1ncc2c(C3CC3)ncc([C@H]3CC[C@H](O)CC3)c2n1 , test system: UniProtKB P30530.
100 to 1000 nM

For the record Cc1c(C(=O)Nc2ccc(Oc3ncnc4[nH]cc(-c5ccccc5)c34)c(F)c2)c(=O)c2cc(C3=CCCC3)ccc2n1C , what value of IC50 is listed for UniProtKB P30530?
4530 nM

What IC50 appears in the records for this compound with UniProtKB P30530? COC[C@H](C)Nc1ncc2c(-c3cnn(C4COC4)c3)cc(C3CCC(=O)NC3)n2n1 (stereo partly drawn)
1000 to 10000 nM

Request: IC50, test system UniProtKB P30530, entry COc1cc2c(Oc3ccc(NC(=O)C4(C(=O)Nc5ccc(F)cc5)CC4)cc3)ccnc2cc1OC(=O)N1CCCC1
100 to 1000 nM
